Reference source: patent US20230048888A1

targetOfAssay: adenosine receptors A2A (Homo sapiens, UniProt P29274)
Sequence (P29274 whole entry): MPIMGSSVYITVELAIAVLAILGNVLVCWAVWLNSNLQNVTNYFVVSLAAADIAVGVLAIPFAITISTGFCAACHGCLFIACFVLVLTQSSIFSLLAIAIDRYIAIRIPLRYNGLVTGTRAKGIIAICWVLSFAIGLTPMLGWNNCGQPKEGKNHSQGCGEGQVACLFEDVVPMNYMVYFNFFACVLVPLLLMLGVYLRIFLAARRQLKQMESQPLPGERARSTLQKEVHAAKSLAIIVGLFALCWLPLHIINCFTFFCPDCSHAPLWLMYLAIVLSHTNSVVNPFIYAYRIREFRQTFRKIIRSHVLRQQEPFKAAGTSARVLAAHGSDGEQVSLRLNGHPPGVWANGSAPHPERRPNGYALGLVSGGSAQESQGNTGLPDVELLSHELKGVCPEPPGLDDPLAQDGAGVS
assayDetails: TR-FRET-based cAMP accumulation assay in hADORA2A-HEK293 cells
measurementParameters: NECA at EC80, hADORA2A-HEK293, read-out: A2AR activity (IC50)
// assign yes (1) if IC50 falls strictly below 9 nM, else no (0) (ties count as no (0))

Previously resolved entries follow.
| compound | categoryLabel |
| --- | --- |
| COCCNc1ccc(CCNc2nc(N)n3nc(-c4ccco4)nc3n2)cc1 | no (0) |
| Nc1nc(NCCc2ccc(NC3COC3)cc2)nc2nc(-c3cccc(F)c3)nn12 | yes (1) |

A record lists CCn1nnc(-c2ccc(CCNc3nc(N)n4nc(-c5ccco5)nc4n3)cc2)n1 . Is its IC50 below 9 nM?
yes (1)

Try the compound CCOCCNc1ccc(CCNc2nc(N)n3nc(-c4ccco4)nc3n2)cc1
yes (1)

----------
assayDetails: Pharmacokinetics of Compounds 27, 16, 14 and 22 in SD rats
Type: in vivo
measurementParameters: Sprague-Dawley, rat, in vivo, PO, dose 3 (mg/kg)
observationType: AUC(0-t) (ng·h/mL)
# output: bare number, implied unit ng·h/mL

Could you tell me which AUC(0-t) is on file for Nc1nc(NCCc2ccc(NC3COC3)cc2)nc2nc(-c3ccco3)nn12 ?
2100

----------
assayDetails: Pharmacokinetics of Compounds 27, 40, 22 and 41 in ICR mice in different modes of administration
Assay type: in vivo
measurementParameters: mouse, in vivo, IV, 1 mg/kg, read-out: Cl—pred (converted)
Listing of entries alongside the reported clearance.
# output: bare number, implied unit mL/min/kg

# annotated cases, reported clearance shown
| compound | observedResult |
| --- | --- |
| CCn1nnc(-c2ccc(CCNc3nc(N)n4nc(-c5ccco5)nc4n3)cc2)n1 [Compound 41] | 15.2 |
| Cn1nnc(-c2ccc(CCNc3nc(N)n4nc(-c5ccco5)nc4n3)cc2)n1 [Compound 40] | 10.8 |
| Nc1nc(NCCc2ccc(NC3COC3)cc2)nc2nc(-c3ccco3)nn12 [Compound 22] | 18.2 |

Turning now to a further record.
Could you tell me which clearance is on file for COCCNc1ccc(CCNc2nc(N)n3nc(-c4ccco4)nc3n2)cc1 [Compound 27] ?
33.8

----------
assayDetails: Pharmacokinetics of acetate of Compound 22 in SD rats with single and repeated administration
Format: in vivo
measurementParameters: female, Sprague-Dawley, rat, plasma, po, 189 mg/kg, Group 4 PO 189 mg/kg single, Female, read-out: T1/2 (converted)
Protocol: The formulation for Group 5 was prepared before administration on Day 1, and then, divided into daily doses and stored at 5±3° C. […] Pharmacokinetic data was calculated using the linear logarithmic trapezoidal method, with a weight of 1/(Y*Y). Samples with the sample concentration below the lower limit of quantification were excluded from the calculation of pharmacokinetic parameters. […]
observationType: half-life (h)
# output: bare number, implied unit h

Could you tell me which half-life is on file for CC(=O)O.Nc1nc(NCCc2ccc(NC3COC3)cc2)nc2nc(-c3ccco3)nn12 [Acetate of Compound 22] ?
7.63

----------
assayDetails: Pharmacokinetics of acetate of Compound 22 in SD rats with single and repeated administration
Format: in vivo
measurementParameters: Sprague-Dawley (SD), rat, plasma, po, 21 mg/kg, oral 21 mg/kg, read-out: maximum plasma concentration (Cmax)
observationType: Cmax (µg/mL)
# output: bare number, implied unit µg/mL

Could you tell me which Cmax is on file for CC(=O)O.Nc1nc(NCCc2ccc(NC3COC3)cc2)nc2nc(-c3ccco3)nn12 [Acetate of Compound 22] ?
18.4

----------
assayDetails: Pharmacokinetics of acetate of Compound 22 in SD rats with single and repeated administration
Format: in vivo
measurementParameters: Sprague-Dawley (SD), rat, plasma, po, 189 mg/kg, oral 189 mg/kg, read-out: maximum plasma concentration (Cmax)
observationType: Cmax (µg/mL)
# output: bare number, implied unit µg/mL

Could you tell me which Cmax is on file for CC(=O)O.Nc1nc(NCCc2ccc(NC3COC3)cc2)nc2nc(-c3ccco3)nn12 [Acetate of Compound 22] ?
51.9

----------
targetOfAssay: adenosine receptor A3 (Homo sapiens)
Construct: host or cells: CHO
Sequence (P0DMS8 whole entry): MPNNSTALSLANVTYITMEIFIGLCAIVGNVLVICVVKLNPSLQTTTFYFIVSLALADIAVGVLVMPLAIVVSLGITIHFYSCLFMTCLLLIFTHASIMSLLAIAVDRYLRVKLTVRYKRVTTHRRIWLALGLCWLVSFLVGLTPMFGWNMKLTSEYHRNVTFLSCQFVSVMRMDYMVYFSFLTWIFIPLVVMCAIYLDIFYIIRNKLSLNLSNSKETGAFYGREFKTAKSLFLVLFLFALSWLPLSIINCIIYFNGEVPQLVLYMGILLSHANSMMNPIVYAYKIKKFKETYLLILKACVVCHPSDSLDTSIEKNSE
assayDetails: cAMP experiment on Gi-coupled adenosine receptor A3 (CHO)
Assay type: cell-based
measurementParameters: cAMP accumulation; read-out: IC50 (nM) CHO cells (ADORA3)
Listing of entries alongside the reported IC50.
# output: bare number, implied unit nM

# annotated cases, reported IC50 shown
| molecule | targetOfAssay | observationType | observedResult |
| --- | --- | --- | --- |
| COCCNc1ccc(CCNc2nc(N)n3nc(-c4ccco4)nc3n2)cc1 | adenosine receptor A3 (Homo sapiens) | IC50 | 458 |
| CCn1c(=O)c2c(nc(/C=C/c3ccc(OC)c(OC)c3)n2C)n(CC)c1=O [Istradefylline, reference compound] | adenosine receptor A3 (Homo sapiens) | IC50 | 2080 |
| Cn1nnc(-c2ccc(CCNc3nc(N)n4nc(-c5ccco5)nc4n3)cc2)n1 | adenosine receptor A3 (Homo sapiens) | IC50 | 928 |

Could you tell me which IC50 is on file for Nc1nc(NCCc2ccc(NC3COC3)cc2)nc2nc(-c3ccco3)nn12 ?
585

----------
targetOfAssay: human ADORA2A (Homo sapiens, UniProt P29274)
Construct: host or cells: CHO
Sequence (P29274 whole entry): as the sequence (P29274 whole entry) above
assayDetails: Calcium flow test (FLIPR), ADORA2A stably transfected CHO
Format: cell-based
measurementParameters: Table 9
Listing of entries alongside the reported IC50.
# output: bare number, implied unit nM

| compound | units | IC50 |
| --- | --- | --- |
| Nc1nc(NCCc2ccc(NC3COC3)cc2)nc2nc(-c3ccco3)nn12 [Compound 22] | nM | 0.35 |

Could you tell me which IC50 is on file for Cn1nnc(-c2ccc(CCNc3nc(N)n4nc(-c5ccco5)nc4n3)cc2)n1 [Compound 40] ?
1.17

----------
assayDetails: Pharmacokinetics of Compounds 27, 16, 14 and 22 in SD rats
Type: in vivo
measurementParameters: Sprague-Dawley, rat, in vivo, IV, dose 1 (mg/kg)
Listing of entries alongside the reported AUC(0-t).
# output: bare number, implied unit ng·h/mL

# annotated cases, reported AUC(0-t) shown
| compound | observedResult |
| --- | --- |
| Nc1nc(NCCc2ccc(OCCN3CC[C@H](F)C3)cc2)nc2nc(-c3ccco3)nn12 | 536 |
| Nc1nc(NCCc2ccc(OCCN3CCC(F)(F)C3)cc2)nc2nc(-c3ccco3)nn12 | 678 |
| Nc1nc(NCCc2ccc(NC3COC3)cc2)nc2nc(-c3ccco3)nn12 | 1770 |

Turning now to a further record.
Could you tell me which AUC(0-t) is on file for COCCNc1ccc(CCNc2nc(N)n3nc(-c4ccco4)nc3n2)cc1 ?
477

----------
assayDetails: Pharmacokinetics of acetate of Compound 22 in SD rats with single and repeated administration
Assay type: in vivo
measurementParameters: Sprague-Dawley (SD), rat, plasma, iv, 2 mg/kg, intravenous injection 2.0 mg/kg, read-out: drug exposure AUC0-t
observationType: AUC(0-t) (ng·h/mL)
# output: bare number, implied unit ng·h/mL

Could you tell me which AUC(0-t) is on file for CC(=O)O.Nc1nc(NCCc2ccc(NC3COC3)cc2)nc2nc(-c3ccco3)nn12 [Acetate of Compound 22] ?
5360

----------
assayDetails: Pharmacokinetics of acetate of Compound 22 in SD rats with single and repeated administration
Type: in vivo
measurementParameters: Sprague-Dawley, rat, plasma, Group 1 IV 2.0 mg/kg single, Male, read-out: CL
observationType: clearance (mL/min/kg)
# output: bare number, implied unit mL/min/kg

Could you tell me which clearance is on file for CC(=O)O.Nc1nc(NCCc2ccc(NC3COC3)cc2)nc2nc(-c3ccco3)nn12 [Acetate of Compound 22] ?
6.56

----------
assayDetails: Pharmacokinetics of acetate of Compound 22 in SD rats with single and repeated administration
Type: in vivo
measurementParameters: both sexes, Sprague-Dawley, rat, plasma, po, 63 mg/kg, Group 5 PO 63 mg/kg repeated, Day 1, Overall, read-out: Cmax
observationType: Cmax (ng/mL)
# output: bare number, implied unit ng/mL

Could you tell me which Cmax is on file for CC(=O)O.Nc1nc(NCCc2ccc(NC3COC3)cc2)nc2nc(-c3ccco3)nn12 [Acetate of Compound 22] ?
28800

----------
targetOfAssay: Human adenosine ADORA2B receptor membrane protein (Homo sapiens, UniProt P29275)
Construct: purchased PerkinElmer ES-013-M400UA
Sequence (P29275 whole entry): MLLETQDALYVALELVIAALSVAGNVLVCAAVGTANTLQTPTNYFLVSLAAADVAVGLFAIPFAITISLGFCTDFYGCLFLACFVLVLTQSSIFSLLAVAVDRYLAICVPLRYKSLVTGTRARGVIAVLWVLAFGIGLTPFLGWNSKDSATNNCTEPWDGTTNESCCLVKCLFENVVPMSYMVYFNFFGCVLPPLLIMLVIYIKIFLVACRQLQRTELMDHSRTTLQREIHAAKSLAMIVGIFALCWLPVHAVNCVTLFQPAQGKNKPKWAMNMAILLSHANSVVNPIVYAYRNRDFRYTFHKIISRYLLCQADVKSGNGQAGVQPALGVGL
assayDetails: Radioisotope ligand competitive binding, ADORA2B ([3H] DPCPX)
measurementParameters: ADORA2B (IC50, nM, n = 3), binding test, Table 11
Listing of entries alongside the reported IC50.
# output: bare number, implied unit nM

| compound | observedResult |
| --- | --- |
| Nc1nc(NCCc2ccc(NC3COC3)cc2)nc2nc(-c3ccco3)nn12 [Compound 22] | 310 |

Turning now to a further record.
So what IC50 did Cn1nnc(-c2ccc(CCNc3nc(N)n4nc(-c5ccco5)nc4n3)cc2)n1 [Compound 40] get with Human adenosine ADORA2B receptor membrane protein (Homo sapiens, UniProt P29275)?
242
